measured.on: mouse FAP (Mus musculus)
Construct: biotinylated His, Avi tag, mouse FAP (26-761, FAP-M82Q5); His; Avi tag (biotinylated); purchased AcroBiosystems FAP-M82Q5
Sequence (P97321 26-761): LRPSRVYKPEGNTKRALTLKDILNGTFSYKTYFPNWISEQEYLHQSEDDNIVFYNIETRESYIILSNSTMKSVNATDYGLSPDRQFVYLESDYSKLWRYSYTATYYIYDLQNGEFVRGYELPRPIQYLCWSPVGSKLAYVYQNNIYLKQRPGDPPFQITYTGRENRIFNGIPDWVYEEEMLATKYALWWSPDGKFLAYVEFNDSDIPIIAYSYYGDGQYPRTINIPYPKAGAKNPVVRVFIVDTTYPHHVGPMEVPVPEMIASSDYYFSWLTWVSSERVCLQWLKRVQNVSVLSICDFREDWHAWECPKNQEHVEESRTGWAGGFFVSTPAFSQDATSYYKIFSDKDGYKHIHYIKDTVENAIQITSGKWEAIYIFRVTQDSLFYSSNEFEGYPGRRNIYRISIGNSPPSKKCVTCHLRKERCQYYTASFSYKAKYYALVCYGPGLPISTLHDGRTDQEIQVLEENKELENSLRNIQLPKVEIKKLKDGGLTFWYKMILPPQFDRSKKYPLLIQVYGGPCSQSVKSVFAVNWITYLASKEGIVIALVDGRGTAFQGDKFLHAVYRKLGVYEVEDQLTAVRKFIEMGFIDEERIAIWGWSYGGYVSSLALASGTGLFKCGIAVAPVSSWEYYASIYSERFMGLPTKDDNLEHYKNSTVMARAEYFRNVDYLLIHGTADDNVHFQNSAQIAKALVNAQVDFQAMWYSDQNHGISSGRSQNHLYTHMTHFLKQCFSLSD
assay.name: Surface plasmon resonance (SPR) for peptide affinity, mouse FAP
Format: binding
pKd: −log10 of the molar value. Non-standard residues stand in square brackets, D forms with d. Residues, ends and D or L forms follow the SMILES beside them. NMeF = CN[C@@H](Cc1ccccc1)C(=O)O; Ahp(2) = CCCCC[C@H](N)C(=O)O; Nphe = O=C(O)CNCc1ccccc1; Sar = CNCC(=O)O
Quick reference: pKd of the listed items.
measured.property: pKd

1) CCCCC[C@@H]1NC(=O)[C@H](Cc2ccc(O)cc2)NC(=O)[C@H](Cc2ccccc2)N(C)C(=O)CNC(=O)CNC(=O)[C@H]2CCCN2C(=O)[C@H](CC(=O)O)NC(=O)CN(Cc2ccccc2)C(=O)CNC(=O)[C@H](Cc2c[nH]c3ccccc23)NC1=O [Example A74] (cyclo(GG[NMeF]Y[Ahp(2)]WG[Nphe]D[dP])) | 8.34
2) CCCCC[C@@H]1NC(=O)[C@H](Cc2ccc(O)cc2)NC(=O)[C@H](Cc2ccccc2)N(C)C(=O)CNC(=O)CN(C)C(=O)[C@H]2CCCN2C(=O)[C@H](CC(=O)O)NC(=O)[C@H](Cc2ccc(O)cc2)NC(=O)CNC(=O)[C@H](Cc2c[nH]c3ccccc23)NC1=O [Example A73] (cyclo([Ahp(2)]WGYD[dP][Sar]G[NMeF]Y)) | 10.09
